biological target: human PTH1 receptor (Homo sapiens, UniProt Q03431); assay: In vitro cAMP signal activity in HKRK-B7 cells (LLC-PK1 cells overexpressing the human PTH1 receptor); type: cell-based; conditions: HKRK-B7 cells; compound at 1×10^−3 M; cAMP produced as percentage of that produced by hPTH(1-34) at 100 nM
measured_metric: cAMP production activity (%)
Give the value, in units of %, as a plain number.

Example results:
{"molecule": "Cc1cc2ccc1CCS(=O)(=O)N1CCC3(CC1)N=C(NC3=O)c1cc(cc(C(F)(F)F)c1)OCCCCCN(C)C2=O [Compound 1409]", "unit_symbol": "%", "cAMP production activity (%)": 13}
{"molecule": "Cc1cc(N(C)C(N)=O)cc(C)c1CCS(=O)(=O)N1CCC2(CC1)N=C(c1cccc(CCCCCC(F)(F)F)c1)NC2=O [Compound 1345]", "unit_symbol": "%", "cAMP production activity (%)": 107}

Now, please, on to the next molecule.
# input Reported cAMP production activity (%) for Cc1cc(N(CCO)C(=O)CO)ccc1CCS(=O)(=O)N1CCC2(CC1)N=C(c1cccc(OC(F)(F)F)c1)NC2=O [Compound 930] : what is it?
# output 92

###

Molecular target: human PTH1 receptor (Homo sapiens, UniProt Q03431)
Sequence (Q03431 27-593): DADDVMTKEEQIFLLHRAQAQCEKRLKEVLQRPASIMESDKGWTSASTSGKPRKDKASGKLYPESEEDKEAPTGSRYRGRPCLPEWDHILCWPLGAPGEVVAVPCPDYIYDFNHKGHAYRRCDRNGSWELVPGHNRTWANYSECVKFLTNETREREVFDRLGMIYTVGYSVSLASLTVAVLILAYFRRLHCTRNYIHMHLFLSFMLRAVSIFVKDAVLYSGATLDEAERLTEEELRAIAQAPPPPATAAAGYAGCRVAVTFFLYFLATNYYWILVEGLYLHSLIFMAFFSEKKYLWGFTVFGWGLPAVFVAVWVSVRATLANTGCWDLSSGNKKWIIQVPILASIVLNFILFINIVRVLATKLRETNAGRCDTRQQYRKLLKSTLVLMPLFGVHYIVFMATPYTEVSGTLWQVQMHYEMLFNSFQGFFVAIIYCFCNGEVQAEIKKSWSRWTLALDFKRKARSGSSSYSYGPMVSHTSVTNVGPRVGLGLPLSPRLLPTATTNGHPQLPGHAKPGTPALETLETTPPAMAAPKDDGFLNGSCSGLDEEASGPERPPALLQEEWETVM
Experiment: In vitro cAMP signal activity in HKRK-B7 cells (LLC-PK1 cells overexpressing the human PTH1 receptor)
Assay type: cell-based
Settings: HKRK-B7 cells; compound at 1×10^−3 M; cAMP produced as percentage of that produced by hPTH(1-34) at 100 nM
measured_metric: cAMP production activity (%)
Give the value, in units of %, as a plain number.

{"entry_smiles": "O=C1NC(c2cccc(C(F)(F)F)c2)=NC12CCN(S(=O)(=O)c1cc3ccccc3s1)CC2", "cAMP production activity (%)": 51}

# input Reported cAMP production activity (%) for "Cc1cc(C(=O)N2CCC[C@H]2C(N)=O)ccc1CCS(=O)(=O)N1CCC2(CC1)N=C(c1cccc(C(F)(F)F)c1)NC2=O" : what is it?
# output 50

# input Now the molecule "Cc1cc(C(=O)N2CCC(O)CC2)cc(C)c1/C=C/S(=O)(=O)N1CCC2(CC1)N=C(c1cccc(CC#N)c1)NC2=O"
# output 63

# input Now the molecule "Cc1cc2ccc1CCS(=O)(=O)N1CCC3(CC1)N=C(NC3=O)c1cc(cc(C(F)(F)F)c1)OCC/C=C\CN(C)C2=O"
# output 5.1

###

Biological target: human PTH1 receptor (Homo sapiens, UniProt Q03431)
Sequence (Q03431 27-593): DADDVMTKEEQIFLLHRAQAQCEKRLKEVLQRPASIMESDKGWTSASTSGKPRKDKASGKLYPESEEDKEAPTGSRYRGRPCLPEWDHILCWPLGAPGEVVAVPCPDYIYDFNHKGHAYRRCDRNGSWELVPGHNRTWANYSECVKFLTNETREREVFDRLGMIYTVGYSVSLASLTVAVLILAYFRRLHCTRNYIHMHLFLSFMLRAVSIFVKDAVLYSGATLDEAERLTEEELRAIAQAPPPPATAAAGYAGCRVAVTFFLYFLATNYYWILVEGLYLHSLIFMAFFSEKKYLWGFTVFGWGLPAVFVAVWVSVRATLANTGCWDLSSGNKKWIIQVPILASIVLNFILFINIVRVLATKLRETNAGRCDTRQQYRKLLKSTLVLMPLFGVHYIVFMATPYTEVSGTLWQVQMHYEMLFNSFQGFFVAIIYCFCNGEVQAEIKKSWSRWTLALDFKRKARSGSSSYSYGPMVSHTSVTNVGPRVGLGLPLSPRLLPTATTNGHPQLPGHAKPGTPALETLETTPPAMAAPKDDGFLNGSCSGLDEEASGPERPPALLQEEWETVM
Experiment: In vitro cAMP signal activity in HKRK-B7 cells (LLC-PK1 cells overexpressing the human PTH1 receptor)
Format: cell-based
Settings: HKRK-B7 cells; compound at 1×10^−3 M; cAMP produced as percentage of that produced by hPTH(1-34) at 100 nM
This listing pairs compounds with measured cAMP production activity (%).
Give the value, in units of %, as a plain number.

# input Reported cAMP production activity (%) for Cc1cc(N2C(=O)NC(C)(C)C2=O)ccc1/C=C/S(=O)(=O)N1CCC2(CC1)N=C(C1CCC(CCC(F)(F)F)CC1)NC2=O (centres unmarked) [Compound 540] : what is it?
# output 22

# input Now the compound O=C(Nc1ccc(CCS(=O)(=O)N2CCC3(CC2)N=C(C2CCCCC2)NC3=O)c(C(F)(F)F)c1)C1CC1 [Compound 271]
# output 57

# input Now the compound CN(C)C(=O)Nc1ccc(/C=C/S(=O)(=O)N2CCC3(CC2)N=C(C2CCCCC2)NC3=O)c(C(F)(F)F)c1 [Compound 194]
# output 56

# input Now the compound O=C1NC(C2(c3ccccc3)CCCCC2)=NC12CCN(S(=O)(=O)c1cccc(Cl)c1)CC2 [Compound 33]
# output 4.4

# input Now the compound CC(C)C1=NC2(CCN(S(=O)(=O)c3cccc(Cl)c3)CC2)C(=O)N1 [Compound 4]
# output 11

# input Now the compound O=C1NC(C2CCCCC2)=NC12CCN(S(=O)(=O)c1cccc(Cl)c1)CC2 [Compound 1]
# output 42

# input Now the compound O=C1NC(c2cccc(C(F)(F)F)c2)=NC12CCN(S(=O)(=O)c1ccc3ccccc3c1)CC2 [Compound 67]
# output 53

# input Now the compound Cc1cc(N(C)C(N)=O)cc(C)c1/C=C/S(=O)(=O)N1CCC2(CC1)N=C(CCCCCCCCCO)NC2=O [Compound 1309]
# output 109

# input Now the compound Cc1cc(CN2C(=O)NC(C)(C)C2=O)cc(C)c1CCS(=O)(=O)N1CCC2(CC1)N=C(C1CCC(C)CC1)NC2=O (centres unmarked) [Compound 780]
# output 48

###

molecular target: human PTH1 receptor (Homo sapiens, UniProt Q03431); experiment: In vitro cAMP signal activity in HKRK-B7 cells (LLC-PK1 cells overexpressing the human PTH1 receptor); assay type: cell-based; settings: HKRK-B7 cells; compound at 1×10^−3 M; cAMP produced as percentage of that produced by hPTH(1-34) at 100 nM
Field: label. Allowed values: 1 (cAMP production activity (%) < 70%) or -1 (cAMP production activity (%) >= 70%).

Reference set (2 entries):
{"compound": "Cc1cc(C(=O)N2CCCO2)cc(C)c1CCS(=O)(=O)N1CCC2(CC1)N=C(C1CCC(CCC(F)(F)F)CC1)NC2=O (stereo not drawn) [Compound 1181]", "answer_label": -1}
{"compound": "CCOCCCCCCC1=NC2(CCN(S(=O)(=O)CCc3c(C)cc(N(C)C(N)=O)cc3C)CC2)C(=O)N1 [Compound 1344]", "answer_label": -1}

Please turn your attention to the following entry.
# input Is 70% strictly greater than the compound's reported cAMP production activity (%)? compound: CNc1cc(C)c(/C=C/[S@TB3](=O)(=O)N2CCC3(CC2)N=C(CCCCCCCCCO)NC3=O)c(C)c1 [Compound 1107]
# output 1

###

molecular target: human PTH1 receptor (Homo sapiens, UniProt Q03431); assay: In vitro cAMP signal activity in HKRK-B7 cells (LLC-PK1 cells overexpressing the human PTH1 receptor); format: cell-based; details: HKRK-B7 cells; compound at 1×10^−3 M; cAMP produced as percentage of that produced by hPTH(1-34) at 100 nM
measured_metric: cAMP production activity (%)
Answer shape: numeric part, then the unit.

Example results:
{"compound": "Cc1cc(C(=O)N2CCOC2=O)cc(C)c1CCS(=O)(=O)N1CCC2(CC1)N=C(C1CCCCC1)NC2=O", "cAMP production activity (%)": "65%"}
{"compound": "COCC(=O)N(C)c1ccc(/C=C/S(=O)(=O)N2CCC3(CC2)N=C(c2cccc(OC(F)(F)F)c2)NC3=O)c(C)c1", "cAMP production activity (%)": "56%"}

# input Reported cAMP production activity (%) for "Cc1cc(NC2=NCCS2)cc(C)c1/C=C/S(=O)(=O)N1CCC2(CC1)N=C(C1CCCCC1)NC2=O" : what is it?
# output 79%

# input Now the compound "Cc1cc(C(=O)N2CCC(O)(CO)CC2)cc(C)c1/C=C/S(=O)(=O)N1CCC2(CC1)N=C(c1cccc(OC(F)(F)F)c1)NC2=O"
# output 51%

# input Now the compound "CC(=O)Nc1ccc(-c2ccc(S(=O)(=O)N3CCC4(CC3)N=C(C3CCCCC3)NC4=O)s2)c(C)c1"
# output 90%

# input Now the compound "Cc1cc(N(C)C(N)=O)cc(C)c1/C=C/[S@TB3](=O)(=O)N1CCC2(CC1)N=C(c1cccc(CCCCCC(F)(F)F)c1)NC2=O"
# output 106%

# input Now the compound "Cc1cc(C(=O)N(C)C)ccc1CCS(=O)(=O)N1CCC2(CC1)N=C(c1ccc3ncsc3c1)NC2=O"
# output 4.5%

# input Now the compound "Cc1cc(C(=O)N2CCC(C)(O)CC2)cc(C)c1/C=C/[S@TB4](=O)(=O)N1CCC2(CC1)N=C(c1cccc(OCCCC(F)(F)C(F)(F)F)c1)NC2=O"
# output 93%

# input Now the compound "O=C1NC(c2cccc(C(F)(F)F)c2)=NC12CCN(S(=O)(=O)/C=C/c1cccc3c1ccn3C[C@H](O)CO)CC2"
# output 90%

# input Now the compound "Cc1cc(N(C)C(N)=O)cc(C)c1/C=C/S(=O)(=O)N1CCC2(CC1)N=C(c1cccc(SC(F)(F)F)c1)NC2=O"
# output 138%

# input Now the compound COc1cc(NC(C)=O)ccc1CCS(=O)(=O)N1CCC2(CC1)N=C(C1CCC(C)CC1)NC2=O (stereo not shown)
# output 74%

# input Now the compound "O=C1NC(CCCCCCCC(F)(F)C(F)(F)F)=NC12CCN(S(=O)(=O)/C=C/c1cccc3c1ccn3C[C@H](O)CO)CC2"
# output 123%

# input Now the compound "CC(=O)N(CCO)c1cc(C)c(/C=C/S(=O)(=O)N2CCC3(CC2)N=C(c2cccc(OC(F)(F)F)c2)NC3=O)cc1F"
# output 111%

Value source: patent US9169254B2
